For each of the compounds below, state its pIC50.
Test system: WI-38
assayProcedure: Cytotoxicity against human WI-38 cells assessed as cell viability measured by MTT assay
Assay type: ADME, cell-based
Please note pIC50 is a logarithmic value: minus log10 of concentration in mol/L. Answer with that number alone.

[in] Return reported pIC50; argument: `O=c1oc2ccccc2c(O)c1-c1cc(-c2ccc(F)cc2)nc(O)n1`
[out] 4.42

[in] Query: pIC50; subject: `COc1cccc(-c2cc(-c3c(O)c4ccccc4oc3=O)nc(N)c2C#N)c1`
[out] 4.27

[in] I have this compound here, O=c1oc2ccccc2c(O)c1C1=NNC(c2ccc(F)cc2)C1 (centres undefined) , and I need its recorded pIC50.
[out] 4.70

[in] Which pIC50 is listed for `O=c1oc2ccccc2c(O)c1-c1cc(-c2c(F)cccc2Cl)nc(S)n1` ?
[out] 4.52
